Measured On: Prostaglandin G/H synthase 2 (Homo sapiens, UniProt P35354)
Sequence (P35354 whole entry): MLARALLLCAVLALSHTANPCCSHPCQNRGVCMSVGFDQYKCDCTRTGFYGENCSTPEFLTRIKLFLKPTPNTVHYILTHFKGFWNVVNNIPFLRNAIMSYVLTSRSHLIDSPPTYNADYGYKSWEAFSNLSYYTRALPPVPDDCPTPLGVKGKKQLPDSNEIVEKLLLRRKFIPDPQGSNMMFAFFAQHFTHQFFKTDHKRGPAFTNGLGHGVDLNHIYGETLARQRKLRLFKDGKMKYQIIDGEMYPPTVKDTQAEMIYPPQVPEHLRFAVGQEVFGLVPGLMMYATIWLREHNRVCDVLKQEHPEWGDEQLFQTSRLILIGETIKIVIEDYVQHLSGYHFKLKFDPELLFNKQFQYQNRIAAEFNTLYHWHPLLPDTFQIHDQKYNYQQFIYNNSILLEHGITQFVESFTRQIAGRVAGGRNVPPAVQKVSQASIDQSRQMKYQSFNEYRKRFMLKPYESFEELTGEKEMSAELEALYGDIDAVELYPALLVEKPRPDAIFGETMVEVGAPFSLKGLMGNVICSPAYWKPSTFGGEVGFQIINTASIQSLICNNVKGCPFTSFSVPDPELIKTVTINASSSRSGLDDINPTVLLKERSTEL
pIC50: −log10 of the molar value.
Value Kind: pIC50

Use these answered entries as a reference point.
>>> reading("NS(=O)(=O)c1ccc(-c2nc(NCc3ccco3)cc(C(F)(F)F)n2)cc1")
7.84
>>> reading("CS(=O)(=O)c1ccc(-c2nc(NCC3CC=CCC3)cc(C(F)(F)F)n2)cc1 (configuration not stated)")
7.37

I. CS(=O)(=O)c1ccc(-c2nc(NCc3ccco3)cc(C(F)(F)F)n2)cc1
II. NS(=O)(=O)c1ccc(-c2nc(NCc3cc4ccccc4s3)cc(C(F)(F)F)n2)cc1
III. NS(=O)(=O)c1ccc(-c2nc(NCc3ccncc3)cc(C(F)(F)F)n2)cc1
IV. NS(=O)(=O)c1ccc(-c2nc(NCc3ccsc3)cc(C(F)(F)F)n2)cc1
Put the items in sequence by pIC50, from largest down. I'd appreciate it if you listed the labels in the requested order.
II, IV, I, III
(II: 7.82, IV: 7.14, I: 6.70, III: 5.72)
